These data points were gathered from PubChem BioAssay (NCI).

Test system: HCT-116 colon
Assay: NCI-60 one-dose screen, 48 h (100 = growth as untreated, 0 = no growth, -100 = all killed)
Settings: 10 µM unless noted
About 83,000 compounds went through this panel and 20% of them were active in at least one assay; those are over-represented in the sample as a whole. The source made the active and inactive calls. Rule for the calls: active = growth percent below 10; inactive = the rest.
Property: growth

• C=C(C)[C@@H]1CC[C@]2(C(=O)O)CC[C@]3(C)[C@H](CC[C@@H]4[C@@]5(C)C/C(=C/c6ccco6)C(=O)C(C)(C)[C@@H]5CC[C@]43C)[C@@H]12 = -74.7% [100 µM] (active)
• CCCCN(CCCC)CC(O)c1ccc(OCc2ccccc2)c2ccccc12 (configuration not stated) = 53.5% (inactive)
• COc1cc(-c2cc(-c3ccc(Nc4ncnc5cc(Cl)ccc45)cc3)nc(N3CCCCC3)n2)cc(OC)c1OC = 103% (inactive)
• Cc1ccc(-n2nc3n(/c2=N\C(=O)NS(=O)(=O)c2ccc(C)cc2)CCN3C2=NCCN2)cc1 = 87.3% (inactive)
• Cc1cnc([C@]23CC[C@@H](C)[C@H](C)[C@H]2C2=CC[C@@H]4[C@@]5(C)Cc6c([nH]c7ccccc67)C(C)(C)[C@@H]5CC[C@@]4(C)[C@]2(C)CC3)o1 = 17.3% [100 µM] (inactive)
• O=[N+]([O-])c1cc([N+](=O)[O-])c(NN=C(c2ccc(O)cc2)c2ccc(O)cc2)cc1Cl = -91.1% (active)
• O=C(Nc1ccccc1)Nc1ccc(C(=O)/C=C/c2ccc(N3CCCC3)cc2)cc1 = 52.9% (inactive)
• C=C(CN=[N+]=[N-])[C@@H]1CC[C@]2(C)[C@H](CC[C@@H]3[C@H]4[C@H]5OC(=O)[C@@]4(CCC5(C)C)CC[C@]32C)[C@@]1(C)CCC#N = 47.3% [100 µM] (inactive)
• O=C(O)c1cc([N+](=O)[O-])ccc1Br = 99.5% (inactive)
• CCCOc1ccc(-c2nc(-c3ccc(N)cc3)cs2)cc1 = 95.5% (inactive)
• C#C[C@]1(O)CC[C@H]2[C@@H]3CC=C4c5nc(Nc6ccc(OC)cc6OC)sc5CC[C@]4(C)[C@H]3CC[C@@]21C = -21.1% (active)
• Clc1ccc2nc(-c3ccc(-c4ccc(/C=N/NC5=NCCN5)cc4)s3)cn2c1 = 86.8% (inactive)
• Cn1cc(-c2noc(C(=O)c3cn(C)c4ncc(Br)cc34)n2)c2ccccc21 = 99.6% (inactive)
• CC(=O)n1cc(C=O)c2ccccc21 = 109% (inactive)
• CCn1cc(-c2ccnc(NCCNS(=O)(=O)c3ccc(Br)cc3)c2)c(-c2cccc(OC)c2)n1 = 51.6% (inactive)
• CC1(C)OC2[C@@H](CNC(=O)NC(=O)NC(=O)CI)O[C@@H](n3cnc4c(NC(=O)Nc5ccccc5)ncnc43)[C@H]2O1 (some centres not stated) = 51.2% (inactive)
• O=C1COCCN1c1ccc(Nc2nc(Cl)nc(N3CCOCC3)n2)cc1 = 101% (inactive)
• COc1cc(Cl)cc(-c2nn(C(=O)NS(=O)(=O)c3ccccc3)cc2-c2ccncc2)c1 = 93.7% (inactive)
• NC(=O)c1cccc(-c2ccc(S(=O)(=O)Nc3ccc4c(c3)N(C(=O)C3CC3)CCC4)cc2)c1 = 98.2% (inactive)
• O=S(=O)(NCCNc1nccc(-c2c(-c3cccc(F)c3)nc3occn23)n1)c1ccc(C(F)(F)F)cc1 = 76.5% (inactive)
• CNC(=O)c1cc(Oc2ccc3nc(NC(=O)c4ccc5ncccc5c4)sc3c2)ccn1 = 103% (inactive)
• COc1cc2c(c(OC)c1)C1c3cc(OC)ccc3NC(=O)N1CC2 (configuration not stated) = 65.2% (inactive)
• CN(C)C(=S)Sc1ccc([N+](=O)[O-])cc1[N+](=O)[O-] = -54.4% (active)
• O=C1CN(Cc2ccc(C(=O)NO)cc2)C(=O)[C@@H](Cc2ccccc2)N1 = 97.2% (inactive)
• CCN(CC)CCCCCCNc1cccc2cc(Br)cnc12 = 72.2% (inactive)
• CN(C)c1ccc(-c2ccc(-c3ccc(C(=N)N)cc3)s2)cc1 = -45.3% (active)
• COc1ccc2c(c1)C(C)Cc1c(Cl)nc(C)nc1N2C (configuration not stated) = 12.2% (inactive)
• CCn1cc(-c2ccnc(NCCNS(=O)(=O)c3cccc4ccccc34)c2)c(-c2cccc(O)c2)n1 = 87.3% (inactive)
• CCCc1cc2cc(-n3nc(C)c4c3CC(C)(C)CC4=O)cc(NC3CCSCC3)c2c(=O)[nH]1 = 19.8% (inactive)
• CN(C)c1cc(NN=C(c2ccc(O)cc2)c2ccc(O)cc2)c([N+](=O)[O-])cc1[N+](=O)[O-] = 33.2% (inactive)
• CCOC(=O)C(=Cc1ccccc1[N+](=O)[O-])C(=O)OCC = 7.82% (active)
• COc1cc(NN=C(c2ccc(O)cc2)c2ccc(O)cc2)c([N+](=O)[O-])cc1[N+](=O)[O-] = 1.31% (active)
• Fc1ccc(NC(=S)c2ccccc2)cc1 = 103% (inactive)
• Cn1cc(-c2nnc(-c3cn(C)c4ncccc34)s2)c2ccccc21 = 76.6% (inactive)
• c1ccc(-c2nnc(-c3c[nH]c4ncccc34)s2)cc1 = 91% (inactive)
• N=C(N)c1ccc(-c2ccc(-c3ccc(-c4cccs4)s3)s2)cc1F = 83.6% (inactive)
• COc1cc2c(cc1OCCCCCOc1ccc(-n3c(C)nc4ccccc4c3=O)cc1)N=C[C@@H]1CCCN1C2=O = 0.749% (active)

====

Tested on: SK-MEL-2 melanoma
Assay: NCI-60 one-dose screen, 48 h
Details: 10 µM unless noted
This is part of a sample that, as a whole, favours compounds with a hit. Of some 83,000 tested, about 20% had one in any assay. Activity calls are given as the source filed them. How the source made its calls: active means growth percent below 10; inactive means the rest.
Labels: Y = active, N = inactive

• COc1ccc2c(c1)C(C)Cc1c(Cl)nc(C)nc1N2C (configuration not stated) = N
• O=C1COCCN1c1ccc(NCc2cn(Cc3cccc4ccccc34)c3ccccc23)cc1 = N
• COc1cc(-c2cc(-c3ccc(Nc4ncnc5cc(Cl)ccc45)cc3)nc(N3CCCCC3)n2)cc(OC)c1OC = N
• CCN(CC)c1ccc2cc(C(Nc3ccc(Br)c(C(F)(F)F)c3)c3nnnn3C(C)(C)C)c(=O)oc2c1 (configuration not stated) = N
• COc1ccc2nc3cc(Cl)ccc3c(Nc3ccc(O)cc3)c2c1 = N
• COc1ccc(/C=C/C=C\C(=O)c2ccc(-n3ccnc3)cc2)cc1 = N
• O=C(CCCCCCSc1nc(-c2ccc(Cl)cc2)cc(-c2ccc(Cl)cc2)n1)NO = N
• CCOC(=O)c1c[nH]n2c(=S)ncnc12 = N
• O=C(Nc1cc(F)cc2cccnc12)c1cnc(N2CCNCC2)cn1 = N
• O=C(N[C@@H]1CCCc2ccccc21)[C@H](CCC(=O)N1CCN(C2CCCCC2)CC1)N1C(=O)[C@@H](N2C(=O)OC[C@@H]2c2ccccc2)[C@H]1/C=C/c1ccccc1 = N
• C=C(C)[C@@H]1CC[C@]2(C)[C@H](CC[C@@H]3[C@@H]([C@@](C)(O)CCC=C(C)C)CC[C@]32C)[C@@]1(C)CCC(=O)O = Y
• Cn1ncc2c(Nc3ccc(O)cc3)nc(Cl)nc21 = N
• CC(C)c1ccc(C(=O)Nc2nc3ccc(O)cc3s2)cc1 = N
• Brc1ccc(-c2nnc3c4[nH]ccc4ncn23)cc1 = N
• CCCCCC1CCCCN1C(=O)OCCCC (configuration not stated) = N
• CCOC(=O)c1nn(C2CCCCO2)c2ccc(NS(=O)(=O)c3ccc(C)cc3)cc12 (configuration not stated) = N
• C=CCc1nc2ccccc2s1 = N
• Oc1ccc(N=Nc2nccs2)c(O)c1 = N
• Cn1cc(-c2noc(C(=O)c3cn(C)c4ncc(Br)cc34)n2)c2ccccc21 = N
• CNC(=O)c1cc(Oc2ccc3nc(NC(=O)c4ccc5ncccc5c4)sc3c2)ccn1 = N
• CC1=CCc2ccccc21 = N
• C#CCOc1ccc(C2=NN(CC3CC3)C3N=C(Cl)c4ncn(CC5CC5)c4N23)cc1OCC#C (configuration not stated) = N
• O=C1Cc2c(sc3c(F)cccc23)C(c2ccccc2[N+](=O)[O-])N1 (configuration not stated) = N
• O=C1COCCN1c1ccc(Nc2nc(Cl)nc(N3CCOCC3)n2)cc1 = N
• CC(C)CSc1ncnc2nc[nH]c12 = N
• COc1cc(/C=C/C(=O)/C=C/c2ccc(-n3ccnc3C)cc2)ccc1O = N
• Oc1c(CNCCNCc2cc(Cl)cc(Cc3ccccc3)c2O)cc(Cl)cc1Cc1ccccc1 = N
• CC1(C)C(=O)/C(=C\c2cccnc2)C[C@]2(C)[C@H]3CC[C@@H]4[C@H]5[C@H](C(=O)/C=C/c6cccnc6)CC[C@]5(C(=O)O)CC[C@@]4(C)[C@]3(C)CC[C@@H]12 = Y
• CC1Cc2ccc(OCCN(C)C)cc2C1=O (configuration not stated) = N
• CCCC[C@@H](C=O)NC(=O)[C@H](CC(C)C)NC(=O)[C@H](CC(C)C)NC(=O)OCc1ccccc1 = N
• C=C(C)[C@@H]1CC[C@]2(C(=O)NCCNCCNCCN)CC[C@]3(C)[C@H](CC[C@@H]4[C@@]5(C)CC[C@H](O)C(C)(C)[C@@H]5CC[C@]43C)[C@@H]12 = Y
• Cc1c(Cn2cc(COc3ccc(Br)cc3)nn2)c(C)c(Cn2cc(COc3ccc(Br)cc3)nn2)c(C)c1Cn1cc(COc2ccc(Br)cc2)nn1 = N
• CC[C@]12C=CCN3CC[C@@]4(c5ccc(OC)cc5N(C)[C@H]4[C@@](O)(C(=O)OC)[C@@H]1OC(=O)CCC(=O)O[C@H]1CC[C@H]4[C@@H]5CCC6=CC(=O)CC[C@@H]6[C@H]5CC[C@]14C)[C@@H]32 = Y
• O=C(O)c1cc([N+](=O)[O-])ccc1Br = N
• CCN(CC)CCSC(=O)C(O)(c1ccccc1)C1CCCC1 (configuration not stated) = N
• CC1(C)CC[C@]2(C(=O)O)CC[C@]3(C)C(=CC[C@@H]4[C@@]5(C)C/C(=C/c6ccco6)C(=O)C(C)(C)[C@@H]5CC[C@]43C)[C@@H]2C1 = Y
• CC1(C)CC[C@]2(C(=O)O)CC[C@]3(C)C(=CC[C@@H]4[C@@]5(C)C/C(=C/c6cccnc6)[C@H](O)C(C)(C)[C@@H]5CC[C@]43C)[C@@H]2C1 = Y
